Tested on: MOLT-4
Experiment: NCI-60 one-dose SRB screening
Type: cell-based
Details: Homo sapiens, MOLT-4, Leukemia, 10 µM one dose, 48 h, read-out: growth percentage
Measured metric: activity at 10 µM (%)
// return numeric value only (unit: %, not printed)

Prompt: Please report the recorded activity at 10 µM for Cc1nc(Nc2ccc(OCc3c(-c4ccccc4)no[n+]3[O-])cc2)c2c(C)nn(-c3ccc(Br)cc3)c2n1 [6h] .
Completion: 87.6

Prompt: Please report the recorded activity at 10 µM for Cc1nc(Nc2ccc(OCc3c(-c4ccccc4)no[n+]3[O-])cc2)c2cnn(-c3ccc(Br)cc3)c2n1 [6f] .
Completion: 91.5

Prompt: Please report the recorded activity at 10 µM for [O-][n+]1onc(-c2ccccc2)c1CNc1ccc(Nc2nc(C(F)(F)F)nc3c2cnn3-c2ccc(Br)cc2)cc1 [12b] .
Completion: 47

Prompt: Please report the recorded activity at 10 µM for Cc1nn(-c2ccc(Br)cc2)c2ncnc(Nc3ccc(OCc4c(-c5ccccc5)no[n+]4[O-])cc3)c12 [6g] .
Completion: 97.7

Prompt: Please report the recorded activity at 10 µM for Cc1nn(-c2ccccc2)c2nc(CCl)[nH]c(=O)c12 [13b] .
Completion: 79.6

Prompt: Please report the recorded activity at 10 µM for Cc1nc(Nc2ccc(OCc3c(-c4ccccc4)no[n+]3[O-])cc2)c2cnn(-c3ccccc3)c2n1 [6b] .
Completion: 117

Prompt: Please report the recorded activity at 10 µM for Cc1nc(Nc2ccc(OCc3c(-c4ccccc4)no[n+]3[O-])cc2)c2c(C)nn(-c3ccccc3)c2n1 [6d] .
Completion: 110

Prompt: Please report the recorded activity at 10 µM for [O-][n+]1onc(-c2ccccc2)c1COc1ccc(Nc2ncnc3c2cnn3-c2ccccc2)cc1 [6a] .
Completion: 87.4

Prompt: Please report the recorded activity at 10 µM for O=c1[nH]c(CCl)nc2c1cnn2-c1ccccc1 [13a] .
Completion: 104

Prompt: Please report the recorded activity at 10 µM for Cc1nn(-c2ccccc2)c2ncnc(Nc3ccc(OCc4c(-c5ccccc5)no[n+]4[O-])cc3)c12 [6c] .
Completion: 92.9

Further cases:
Prompt: Please report the recorded activity at 10 µM for O=c1[nH]c(CNc2ccc(NCc3c(-c4ccccc4)no[n+]3[O-])cc2)nc2c1cnn2-c1ccccc1 [14a] .
Completion: 44

Prompt: Please report the recorded activity at 10 µM for Cc1nn(-c2ccc(Br)cc2)c2nc(C(F)(F)F)nc(Nc3ccc(NCc4c(-c5ccccc5)no[n+]4[O-])cc3)c12 [12c] .
Completion: 60.3

Prompt: Please report the recorded activity at 10 µM for Cc1nn(-c2ccc(Br)cc2)c2nc(CNc3ccc(NCc4c(-c5ccccc5)no[n+]4[O-])cc3)[nH]c(=O)c12 [14c] .
Completion: 87.2

Prompt: Please report the recorded activity at 10 µM for [O-][n+]1onc(-c2ccccc2)c1COc1ccc(Nc2ncnc3c2cnn3-c2ccc(Br)cc2)cc1 [6e] .
Completion: 103

Prompt: Please report the recorded activity at 10 µM for Cc1nn(-c2ccccc2)c2nc(C(F)(F)F)nc(Nc3ccc(NCc4c(-c5ccccc5)no[n+]4[O-])cc3)c12 [12a] .
Completion: 56.4

Prompt: Please report the recorded activity at 10 µM for Cc1nn(-c2ccccc2)c2nc(CNc3ccc(NCc4c(-c5ccccc5)no[n+]4[O-])cc3)[nH]c(=O)c12 [14b] .
Completion: 61.5

Prompt: Please report the recorded activity at 10 µM for Nc1ccc(NCc2c(-c3ccccc3)no[n+]2[O-])cc1 [compound 11] .
Completion: 91.8

* * *

System: SF-268
Assay: NCI-60 one-dose SRB screening
Format: cell-based
Settings: Homo sapiens, SF-268, CNS Cancer, 10 µM one dose, 48 h, read-out: growth percentage
Measured metric: activity at 10 µM (%)
// return numeric value only (unit: %, not printed)

Prompt: Please report the recorded activity at 10 µM for O=c1[nH]c(CCl)nc2c1cnn2-c1ccccc1 [13a] .
Completion: 99.9

Prompt: Please report the recorded activity at 10 µM for `[O-][n+]1onc(-c2ccccc2)c1COc1ccc(Nc2ncnc3c2cnn3-c2ccccc2)cc1` .
Completion: 103

Prompt: Please report the recorded activity at 10 µM for `[O-][n+]1onc(-c2ccccc2)c1COc1ccc(Nc2ncnc3c2cnn3-c2ccc(Br)cc2)cc1` .
Completion: 101

Prompt: Please report the recorded activity at 10 µM for Cc1nn(-c2ccc(Br)cc2)c2nc(CNc3ccc(NCc4c(-c5ccccc5)no[n+]4[O-])cc3)[nH]c(=O)c12 [14c] .
Completion: 95.2

Prompt: Please report the recorded activity at 10 µM for `Cc1nn(-c2ccccc2)c2ncnc(Nc3ccc(OCc4c(-c5ccccc5)no[n+]4[O-])cc3)c12` .
Completion: 96.5

Prompt: Please report the recorded activity at 10 µM for Cc1nn(-c2ccccc2)c2nc(CNc3ccc(NCc4c(-c5ccccc5)no[n+]4[O-])cc3)[nH]c(=O)c12 [14b] .
Completion: 84.9

Prompt: Please report the recorded activity at 10 µM for O=c1[nH]c(CNc2ccc(NCc3c(-c4ccccc4)no[n+]3[O-])cc2)nc2c1cnn2-c1ccccc1 [14a] .
Completion: 73.5

Prompt: Please report the recorded activity at 10 µM for `Cc1nc(Nc2ccc(OCc3c(-c4ccccc4)no[n+]3[O-])cc2)c2c(C)nn(-c3ccc(Br)cc3)c2n1` .
Completion: 94.7

* * *

System: NCI-H522
Assay: NCI-60 one-dose SRB screening
Assay type: cell-based
Conditions: Homo sapiens, NCI-H522, Non-Small Cell Lung Cancer, 10 µM one dose, 48 h, read-out: growth percentage
Experimental: The structures of the synthesized compounds 6a–h, 12a–c, 11, 13a–c, and 14a–c were submitted to the National Cancer Institute’s Developmental Therapeutics Program (NCI-DTP), and all of them were selected for preliminary in vitro anticancer activity screening against NCI-59 human cancer cell lines at a concentration of 10 µM, using the sulforhodamine B (SRB) assay to determine the growth percentage and cell viability. […]
Measured metric: activity at 10 µM
The reply should consist of the numeric value with the unit placed after it.

Below are worked cases with known answers.
Prompt: Please report the recorded activity at 10 µM for Cc1nn(-c2ccc(Br)cc2)c2nc(CNc3ccc(NCc4c(-c5ccccc5)no[n+]4[O-])cc3)[nH]c(=O)c12 [14c] .
Completion: 90.8%

Prompt: Please report the recorded activity at 10 µM for Cc1nn(-c2ccc(Br)cc2)c2nc(CCl)[nH]c(=O)c12 [13c] .
Completion: 85.5%

Prompt: Please report the recorded activity at 10 µM for Cc1nn(-c2ccccc2)c2nc(C(F)(F)F)nc(Nc3ccc(NCc4c(-c5ccccc5)no[n+]4[O-])cc3)c12 [12a] .
Completion: 91.4%

Now let's try a different one.
Prompt: Please report the recorded activity at 10 µM for Cc1nn(-c2ccccc2)c2nc(CCl)[nH]c(=O)c12 [13b] .
Completion: 89.8%

* * *

Tested on: PC-3
Test: NCI-60 one-dose SRB screening
Format: cell-based
Details: Homo sapiens, PC-3, Prostate Cancer, 10 µM one dose, 48 h, read-out: growth percentage
Description: The structures of the synthesized compounds 6a–h, 12a–c, 11, 13a–c, and 14a–c were submitted to the National Cancer Institute’s Developmental Therapeutics Program (NCI-DTP), and all of them were selected for preliminary in vitro anticancer activity screening against NCI-59 human cancer cell lines at a concentration of 10 µM, using the sulforhodamine B (SRB) assay to determine the growth percentage and cell viability. […]
Label Met when activity at 10 µM >= 90%; otherwise Not met.

Solved cases (6 shown):
Prompt: In plain terms: is recorded activity at 10 µM at least 90% for `Cc1nc(Nc2ccc(OCc3c(-c4ccccc4)no[n+]3[O-])cc2)c2c(C)nn(-c3ccc(Br)cc3)c2n1` ?
Completion: Not met

Prompt: In plain terms: is recorded activity at 10 µM at least 90% for Cc1nn(-c2ccc(Br)cc2)c2nc(CCl)[nH]c(=O)c12 [13c] ?
Completion: Met

Prompt: In plain terms: is recorded activity at 10 µM at least 90% for Cc1nn(-c2ccc(Br)cc2)c2nc(C(F)(F)F)nc(Nc3ccc(NCc4c(-c5ccccc5)no[n+]4[O-])cc3)c12 [12c] ?
Completion: Not met

Prompt: In plain terms: is recorded activity at 10 µM at least 90% for Cc1nn(-c2ccccc2)c2nc(CNc3ccc(NCc4c(-c5ccccc5)no[n+]4[O-])cc3)[nH]c(=O)c12 [14b] ?
Completion: Not met

Prompt: In plain terms: is recorded activity at 10 µM at least 90% for `Cc1nc(Nc2ccc(OCc3c(-c4ccccc4)no[n+]3[O-])cc2)c2cnn(-c3ccccc3)c2n1` ?
Completion: Met

Prompt: In plain terms: is recorded activity at 10 µM at least 90% for `Cc1nc(Nc2ccc(OCc3c(-c4ccccc4)no[n+]3[O-])cc2)c2c(C)nn(-c3ccccc3)c2n1` ?
Completion: Met

Moving on to another compound below.
Prompt: In plain terms: is recorded activity at 10 µM at least 90% for `[O-][n+]1onc(-c2ccccc2)c1COc1ccc(Nc2ncnc3c2cnn3-c2ccc(Br)cc2)cc1` ?
Completion: Met
